# TARGET ENTITY: Cytochrome P450 1A2 (Homo sapiens) (UniProt P05177)
# Sequence (P05177 whole entry, looked up): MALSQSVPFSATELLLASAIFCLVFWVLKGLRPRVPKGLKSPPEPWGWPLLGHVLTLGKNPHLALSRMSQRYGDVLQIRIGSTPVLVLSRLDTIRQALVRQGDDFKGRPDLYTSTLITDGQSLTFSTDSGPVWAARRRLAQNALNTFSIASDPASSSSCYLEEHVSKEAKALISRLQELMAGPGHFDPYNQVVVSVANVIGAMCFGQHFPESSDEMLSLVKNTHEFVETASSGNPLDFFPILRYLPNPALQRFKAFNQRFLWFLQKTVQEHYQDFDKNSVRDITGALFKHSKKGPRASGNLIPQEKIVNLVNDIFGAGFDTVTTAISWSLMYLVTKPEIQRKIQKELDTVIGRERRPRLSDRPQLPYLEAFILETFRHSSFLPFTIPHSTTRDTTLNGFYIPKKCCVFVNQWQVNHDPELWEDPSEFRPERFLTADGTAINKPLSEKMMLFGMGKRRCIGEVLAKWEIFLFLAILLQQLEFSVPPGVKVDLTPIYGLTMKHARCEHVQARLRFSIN
# EXPERIMENT NOTES: Cytochrome panel assay with activity outcomes
# MEASUREMENT SETUP: recombinant CYP, pro-luciferin dealkylation, luminescence, p450-cyp1a2; series mostly up to 57.1 µM
The campaign covered roughly 16,000 compounds. About 5,700 (36%) were called active. Inconclusive results (about 24%) are left out. Calls follow the shape of the dose curve; as a rule, active = well fitted curve in the direction sought with a large enough effect; inconclusive = small, poorly fitted or top-dose-only effect, or effect the other way; inactive = no such curve, though single readings can be large or run the other way. Some of the results follow.
Form entry, call: pick from TRUE (active), FALSE (inactive)

Take a look at these entries with their results.
>>> df
                                   compound                             target_entity  class_label
0  N#Cc1nc(-c2ccc(OCc3ccccc3)cc2)oc1NCCN1CCOCC1  Cytochrome P450 1A2 (Homo sapiens) (UniProt P05177)        FALSE
1  Cc1cc(C)nc(SCc2nnc(SCC(N)=O)n2Cc2ccco2)n1  Cytochrome P450 1A2 (Homo sapiens) (UniProt P05177)        FALSE
2     O=C(Nc1nc2ccccc2n1CCN1CCCCC1)C1CCCCC1  Cytochrome P450 1A2 (Homo sapiens) (UniProt P05177)        FALSE

Returns: the outcome recorded for CCCCN=C1N/C(=C\c2ccco2)C(=O)N1c1ccccc1 in this assay. TRUE

Test call for this compound, please: CN(C)c1ccc(/C=C2/C(=O)N(c3ccc([N+](=O)[O-])cc3)N=C2N2CCOCC2)cc1 FALSE

---

Please provide measured activity, negative = inhibition for the entries that follow.
# TARGET ENTITY: Cytochrome P450 1A2 (Homo sapiens) (UniProt P05177)
# EXPERIMENT NOTES: Cytochrome panel assay with activity outcomes; as to activity, negative = inhibition: % is scaled to controls: 0 for no effect and ±100 for the full control effect
# MEASUREMENT SETUP: recombinant CYP, pro-luciferin dealkylation, luminescence, p450-cyp1a2; series mostly up to 57.1 µM
Out of some 16,000 compounds screened, about 5,700 (36%) were called active. Inconclusive results (about 24%) are left out. The list shows a part of the results.

Some compounds with recorded activity, negative = inhibition:
>>> df
                              sample_smiles                    assay_result
0        c1ccc2c[n+](Cc3ccnc4ccccc34)ccc2c1  -21.8% [at 2.29 µM] (inactive)
1  CO[C@@H]1COC(=O)C/C=C\[C@H](C)COC(=O)[C@H](Cc2ccccc2)NC(=O)C/C=C\[C@H]1C   4.04% [at 11.4 µM] (inactive)
2  c1ccc([C@H](c2cccc3c2ccc2ccccc23)[C@H](c2ccccc2)c2cccc3c2ccc2ccccc23)cc1  -9.37% [at 11.4 µM] (inactive)
3                              NCCSCCC(=O)O  -2.89% [at 11.4 µM] (inactive)
4  O=C(O)c1c(-c2c3ccc(=O)cc-3oc3cc(O)ccc23)cc2ccccc2c1-c1ccccc1  -17.6% [at 2.29 µM] (inactive)
5  COc1ccc(O[C@H]2C=C[C@@H](c3ccccc3)O[C@H]2CO/N=C(/C)CCC(=O)OC[C@@H]2O[C@H](C#Cc3ccccc3)C=C[C@@H]2Oc2ccc(C)cc2)cc1  -5.99% [at 11.4 µM] (inactive)
6            C[C@@H](C[C@H](N)C(=O)O)C(=O)O  -18.7% [at 11.4 µM] (inactive)
7                      O=C(O)Cc1cc(Cl)ccc1O  -16.6% [at 11.4 µM] (inactive)

Dear colleague, could you please provide activity, negative = inhibition for the compounds listed below?
1. CO[C@@H]1/C=C\CC(=O)N[C@@H](C)C(=O)OC[C@@H](OC)[C@H](C)CCCC(=O)OC[C@H]1C
2. C[C@@](O)(CNS(=O)(=O)c1ccccc1)c1ccccc1
3. O=C(O)CSCCc1ccccc1
4. Cc1ccc(S(=O)(=O)NC(=O)Nc2ncn[nH]2)cc1
5. O=c1c[n+](CCCC[n+]2cc(=O)o[nH]2)[nH]o1
6. Nc1nc(N)nc(CCCc2nc(N)nc(N)n2)n1

1. 0.281% [at 11.4 µM] (inactive)
2. -17.4% [at 11.4 µM] (inactive)
3. -15.5% [at 11.4 µM] (inactive)
4. -21.4% [at 2.29 µM] (inactive)
5. 2.3% [at 11.4 µM] (inactive)
6. -16.3% [at 11.4 µM] (inactive)

---

Please go through the items and note down their activity, negative = inhibition.
# TARGET ENTITY: Cytochrome P450 1A2 (Homo sapiens) (UniProt P05177)
# EXPERIMENT NOTES: Cytochrome panel assay with activity outcomes; as to activity, negative = inhibition: % is scaled to controls: 0 for no effect and ±100 for the full control effect
# MEASUREMENT SETUP: recombinant CYP, pro-luciferin dealkylation, luminescence, p450-cyp1a2; series mostly up to 57.1 µM
Screen size: about 16,000 compounds; about 5,700 (36%) were called active. About 24% were inconclusive and are not listed. Some of the results follow.

For orientation, consider the following solved cases.
                              sample_smiles                             target_entity                    assay_result
0          O=C(NNS(=O)(=O)c1ccccc1)c1cccnc1  Cytochrome P450 1A2 (Homo sapiens) (UniProt P05177)   2.15% [at 2.29 µM] (inactive)
1  CC(C)(CO[C@H]1C[C@H]2CC[C@@]1(C)C2(C)C)[N+](=O)[O-]  Cytochrome P450 1A2 (Homo sapiens) (UniProt P05177)  -17.1% [at 11.4 µM] (inactive)
2                 O=C(O)/C=C\C(=O)Nc1ccccn1  Cytochrome P450 1A2 (Homo sapiens) (UniProt P05177)   -5.8% [at 11.4 µM] (inactive)
3                 O=C(CC1(O)CCCCC1)OC1CCCC1  Cytochrome P450 1A2 (Homo sapiens) (UniProt P05177)  -12.2% [at 11.4 µM] (inactive)

Now for a further molecule.
Query CO/N=C(\C)CCN1CCCc2nc(C)c(C)cc21 yields activity, negative = inhibition of 2.07% [at 11.4 µM] (inactive)

---

# TARGET ENTITY: Cytochrome P450 1A2 (Homo sapiens) (UniProt P05177)
# EXPERIMENT NOTES: Cytochrome panel assay with activity outcomes
# MEASUREMENT SETUP: recombinant CYP, pro-luciferin dealkylation, luminescence, p450-cyp1a2; series mostly up to 57.1 µM
The campaign covered roughly 16,000 compounds. About 5,700 (36%) were called active. Another 24% or so got no clear call; they are omitted. Calls follow the shape of the dose curve; as a rule, active = well fitted curve in the direction sought with a large enough effect; inconclusive = small, poorly fitted or top-dose-only effect, or effect the other way; inactive = no such curve, though single readings can be large or run the other way. The list shows a part of the results.
# valid calls are active, inactive; nothing else

// param item: Cc1ccc(C)c2sc(NC(=O)c3ccc(N4CCCCC4)c([N+](=O)[O-])c3)nc12 ; yields the recorded call inactive

---

# TARGET ENTITY: Cytochrome P450 1A2 (Homo sapiens) (UniProt P05177)
# EXPERIMENT NOTES: Cytochrome panel assay with activity outcomes
# MEASUREMENT SETUP: recombinant CYP, pro-luciferin dealkylation, luminescence, p450-cyp1a2; series mostly up to 57.1 µM
The campaign covered roughly 16,000 compounds. About 5,700 (36%) were called active. Inconclusive results (about 24%) are left out. Calls come from the whole dose curve; as a rule, active = well fitted curve in the direction sought with a large enough effect; inconclusive = small, poorly fitted or top-dose-only effect, or effect the other way; inactive = no such curve, though single readings can be large or run the other way. The list shows a part of the results.
Pick one: active, inactive

Example results:
                              sample_smiles  class_label
0                           C[C@H](N)C(=O)O     inactive
1        N#Cc1cccc(-c2cc(NCc3ccccc3)ncn2)c1       active
2        N#Cc1cccc(-c2cc(NCc3cccnc3)ncn2)c1       active
3  CCCn1nc(C(=O)NCC(C)(C)N2CCOCC2)c2ccccc2c1=O     inactive
4              Cn1sc(NC(=O)c2ccccc2Cl)nc1=O     inactive
5                O=C(Nc1ccccc1Cl)c1ccccc1Cl       active

Called result for O=C(CCCCn1c(=O)c2ccccc2n(CC(=O)NC2CCCC2)c1=O)NC1CCCC1 inactive

What outcome does the record of this test show for CC(=O)NNc1cccc(Cl)n1 ? inactive

Lab log entry: COCC(=O)N1CCC2(CCCN(C(=O)Nc3cccc(F)c3)C2)CC1 — outcome as called in the assay? inactive

Outcome logged for C[C@@H]1C[C@H](OC(=O)[C@@H](O)c2ccccc2)CC(C)(C)N1C in this assay: inactive

---

# TARGET ENTITY: Cytochrome P450 1A2 (Homo sapiens)
# EXPERIMENT NOTES: Cytochrome panel assay with activity outcomes
# MEASUREMENT SETUP: recombinant CYP, pro-luciferin dealkylation, luminescence, p450-cyp1a2; series mostly up to 57.1 µM
# Method: The P450 gene superfamily is involved in the metabolism and clearance of xenobiotics. This assay used various human CYP P450 isozymes to measure the dealkylation of various pro-luciferin substrates to luciferin. The luciferin is then measured by luminescence after the addition of a luciferase detection reagent. […] Inhibitors and some substrates limit the production of luciferin, and decrease measured luminescence. […] 8, Detection, 1 sec, ViewLux luminescent read […]
The campaign covered roughly 16,000 compounds. About 5,700 (36%) were called active. About 24% were inconclusive and are not listed. The call rests on the fitted dose curve; in most records, active means well fitted curve in the direction sought with a large enough effect; inconclusive means small, poorly fitted or top-dose-only effect, or effect the other way; inactive means no such curve, though single readings can be large or run the other way. The list shows a part of the results.
// one of Y (active), N (inactive), no free text

>>> df
                           sample_smiles  class_label
0  CN1CCN(c2cc(-c3ccc(N(C)C)cc3)ncn2)CC1            Y
1     COCCNc1nc(-c2cccc(OC)c2)nc2ccccc12            Y
2           C[N+](C)(C)CCCCCC[N+](C)(C)C            N

Which outcome was entered for the molecule COc1ccc(C=Nc2c(O)ccc3ccccc23)cc1OC in this test? Y

Hello, I am checking results. What call was entered for Cc1cc(C)n2nc(SCc3cc(=O)oc4ccc5ccccc5c34)nc2n1 ? Y

Dear all, I need the recorded test outcome for CN1CCN(c2nc(-c3cccnc3)nc3ccccc23)CC1 , thank you. Y
